The reported numbers originate from paper PMC6831621.

Substrate: CC(=O)N[C@H]1[C@H](Oc2ccc3c(C)cc(=O)oc3c2)O[C@H](CO)[C@@H](O[C@@H]2O[C@H](CO)[C@@H](O)[C@H](O)[C@H]2NC(C)=O)[C@@H]1O
Assay: fluorogenic substrate hydrolysis, Michaelis-Menten non-linear fit
Format: biochemical, Pseudoalteromonas aurantia
Conditions: McIlvaine's buffer pH 5.0, substrate 0.01-0.6 mM, temperature not given for kinetics
Measured Km, listed per entry.
// units = µM; emit number, no label

Here are 2 proteins together with their reported answers.
Chi23 (Pseudoalteromonas aurantia; D229A) (protein, pET22b NdeI/XhoI, His-tagged (C-terminal by primer design), E. coli BL21(DE3); monomer; forward primer encodes MSKTITYYNS, reverse primer encodes AQSLNS at the C-terminus) MSKTITYYNSGAVPLINASELPYDVVNLAFLSSSSNNPFNLVLSGAIAATESSFTTNTIEAIKVMQHKGQKVLISFGGGTMGSNAYRSLSEDTAKLADSLASFVKNNQLDGVDIDYEDTAAFTGQAGYDGAQFLISLTQELRKRLPSPDYIISHAPQPPYLEQGGYMAGYVEVVELVGQEIDWLNVQFYNNPPWSANPDQIVSSYLNYTKLPNMSPEKVIAGFPVTQNAAGSGYMPVQTIINEVIKPIQQQSSLGGIMNWQFSSDHNGDWIKAIAQSLNS :: 80.1
Chi23 (Pseudoalteromonas aurantia; Q261A) (protein, pET22b NdeI/XhoI, His-tagged (C-terminal by primer design), E. coli BL21(DE3); monomer; forward primer encodes MSKTITYYNS, reverse primer encodes AQSLNS at the C-terminus) MSKTITYYNSGAVPLINASELPYDVVNLAFLSSSSNNPFNLVLSGAIAATESSFTTNTIEAIKVMQHKGQKVLISFGGGTMGSNAYRSLSEDTAKLADSLASFVKNNQLDGVDIDYEDTAAFTGQAGYDGAQFLISLTQELRKRLPSPDYIISHAPQPPYLEQGGYMAGYVEVVELVGQEIDWLNVQFYNNPPWSANPDQIVSSYLNYTKLPNMSPEKVIAGFPVTQNDAGSGYMPVQTIINEVIKPIQQQSSLGGIMNWAFSSDHNGDWIKAIAQSLNS :: 86.3

Below: the item to evaluate.
Value lookup for Km; key = Chi23 (Pseudoalteromonas aurantia; G79A) (protein, pET22b NdeI/XhoI, His-tagged (C-terminal by primer design), E. coli BL21(DE3); monomer; forward primer encodes MSKTITYYNS, reverse primer encodes AQSLNS at the C-terminus) MSKTITYYNSGAVPLINASELPYDVVNLAFLSSSSNNPFNLVLSGAIAATESSFTTNTIEAIKVMQHKGQKVLISFGGATMGSNAYRSLSEDTAKLADSLASFVKNNQLDGVDIDYEDTAAFTGQAGYDGAQFLISLTQELRKRLPSPDYIISHAPQPPYLEQGGYMAGYVEVVELVGQEIDWLNVQFYNNPPWSANPDQIVSSYLNYTKLPNMSPEKVIAGFPVTQNDAGSGYMPVQTIINEVIKPIQQQSSLGGIMNWQFSSDHNGDWIKAIAQSLNS 72.6
